Hey, just so you know, these numbers are from patent US7368582B2.

Test system: ventricle of guinea pigs
Experiment: Functional effectiveness on guinea-pig hearts in vivo (ERP, QT, QRS, systolic blood pressure)
Parameters: species or system guinea pig (Dunkin-Hartley)
Settings: 1 min. after 10 μmole/kg i.v.; ventricle of guinea pigs; negative values indicate shortening
READOUT NAME: ERP

                                   compound             system_tested  reading
0  CCc1ccc(S(=O)(=O)N(CC(C)(C)C)C2c3cc(CC(=O)NCCc4ccccc4)ccc3OC(C)(C)C2O)cc1 (stereo not drawn)  ventricle of guinea pigs  -8.0 ms
1  CCc1ccc(S(=O)(=O)N(CC(C)(C)C)[C@H]2c3cc(CC(=O)NCc4ccccc4)ccc3OC(C)(C)[C@@H]2O)cc1  ventricle of guinea pigs     n.s.
2  CCc1ccc(S(=O)(=O)N[C@@H]2c3cc(CC(=O)NCc4ccccc4)ccc3OC(C)(C)[C@H]2O)cc1  ventricle of guinea pigs     n.s.
3  CC1(C)Oc2ccc(CC(=O)NC3CCCc4ccccc43)cc2C(NS(=O)(=O)c2cccc(F)c2)C1O (mixture of isomers)  ventricle of guinea pigs     n.s.
4  CCc1ccc(S(=O)(=O)N(CC(C)(C)C)[C@@H]2c3cc(CC(=O)NCc4ccccc4)ccc3OC(C)(C)[C@H]2O)cc1  ventricle of guinea pigs  -8.2 ms
5  CCc1ccc(S(=O)(=O)NC2c3cc(CC(=O)NC4CCCc5ccccc54)ccc3OC(C)(C)C2O)cc1 (stereo not drawn)  ventricle of guinea pigs     n.s.
6  CCc1ccc(S(=O)(=O)N(CC(C)(C)C)C2c3cc(CC(=O)NCc4ccccc4)ccc3OC(C)(C)C2O)cc1 (stereo not drawn)  ventricle of guinea pigs     n.s.
7  CCc1ccc(S(=O)(=O)NC2c3cc(CC(=O)N4CCN(c5ccccc5)CC4)ccc3OC(C)(C)C2O)cc1 (stereo not drawn)  ventricle of guinea pigs  -7.5 ms
8  CCc1ccc(S(=O)(=O)N[C@@H]2c3cc(CC(=O)N[C@@H]4CCCc5ccccc54)ccc3OC(C)(C)[C@H]2O)cc1  ventricle of guinea pigs     n.s.
